pIC50 values recorded for BTK wt (Homo sapiens (Human), UniProt Q06187)
# log scale: pIC50 equals minus log10 of the concentration in mol/L

CN([C@@H]1CCC[C@H]1Oc1nc(Nc2ccc3c(c2)OCCOCCOCCO3)nc2[nH]ncc12)S(C)(=O)=O: 7.17
CCC(=O)Nc1ccccc1Nc1nc(Nc2ccc3c(c2)OCCOCCOCCO3)nc2[nH]cnc12: 8.36
CN([C@@H]1c2ccccc2C[C@H]1Oc1nc(Nc2ccc3c(c2)OCCOCCOCCO3)nc2[nH]cnc12)S(C)(=O)=O: 6.70

Request the reported pIC50 associated with CCC(=O)Nc1cccc(Nc2nc(Nc3ccc4c(c3)OCCOCCOCCO4)nc3[nH]cnc23)c1
7.05

Request the reported pIC50 associated with C=CC(=O)Nc1cc(C)ccc1Nc1nc(Nc2ccc3c(c2)OCCOCCOCCO3)nc2[nH]ncc12
7.48

###

IC50 values recorded for FAK (Homo sapiens (Human))
The reply should be a number in µM, with the unit left off.

CCC(=O)Nc1ccccc1Nc1nc(Nc2ccc3c(c2)OCCOCCOCCO3)nc2[nH]cnc12: 0.0246

Request the reported IC50 associated with c1cc(Nc2nc(Nc3ccc4c(c3)OCCOCCOCCO4)nc3[nH]cnc23)c2[nH]ccc2c1
0.257

Request the reported IC50 associated with C=CC(=O)Nc1cccc(Nc2nc(Nc3ccc4c(c3)OCCOCCOCCO4)nc3[nH]cnc23)c1
0.274

###

pIC50 values recorded for BMX (Homo sapiens (Human), UniProt P51813)
# log scale: pIC50 equals minus log10 of the concentration in mol/L

C=CC(=O)Nc1ccccc1Nc1nc(Nc2ccc3c(c2)OCCOCCOCCO3)nc2[nH]cnc12: 8.92
CCC(=O)Nc1ccccc1Nc1nc(Nc2ccc3c(c2)OCCOCCOCCO3)nc2[nH]cnc12: 8.57

Consider now this further compound.
Request the reported pIC50 associated with C=CC(=O)Nc1cccc(Nc2nc(Nc3ccc4c(c3)OCCOCCOCCO4)nc3[nH]cnc23)c1
9.39

###

tested-system: EGFR wt (Homo sapiens (Human))
Sequence (P00533 25-1210): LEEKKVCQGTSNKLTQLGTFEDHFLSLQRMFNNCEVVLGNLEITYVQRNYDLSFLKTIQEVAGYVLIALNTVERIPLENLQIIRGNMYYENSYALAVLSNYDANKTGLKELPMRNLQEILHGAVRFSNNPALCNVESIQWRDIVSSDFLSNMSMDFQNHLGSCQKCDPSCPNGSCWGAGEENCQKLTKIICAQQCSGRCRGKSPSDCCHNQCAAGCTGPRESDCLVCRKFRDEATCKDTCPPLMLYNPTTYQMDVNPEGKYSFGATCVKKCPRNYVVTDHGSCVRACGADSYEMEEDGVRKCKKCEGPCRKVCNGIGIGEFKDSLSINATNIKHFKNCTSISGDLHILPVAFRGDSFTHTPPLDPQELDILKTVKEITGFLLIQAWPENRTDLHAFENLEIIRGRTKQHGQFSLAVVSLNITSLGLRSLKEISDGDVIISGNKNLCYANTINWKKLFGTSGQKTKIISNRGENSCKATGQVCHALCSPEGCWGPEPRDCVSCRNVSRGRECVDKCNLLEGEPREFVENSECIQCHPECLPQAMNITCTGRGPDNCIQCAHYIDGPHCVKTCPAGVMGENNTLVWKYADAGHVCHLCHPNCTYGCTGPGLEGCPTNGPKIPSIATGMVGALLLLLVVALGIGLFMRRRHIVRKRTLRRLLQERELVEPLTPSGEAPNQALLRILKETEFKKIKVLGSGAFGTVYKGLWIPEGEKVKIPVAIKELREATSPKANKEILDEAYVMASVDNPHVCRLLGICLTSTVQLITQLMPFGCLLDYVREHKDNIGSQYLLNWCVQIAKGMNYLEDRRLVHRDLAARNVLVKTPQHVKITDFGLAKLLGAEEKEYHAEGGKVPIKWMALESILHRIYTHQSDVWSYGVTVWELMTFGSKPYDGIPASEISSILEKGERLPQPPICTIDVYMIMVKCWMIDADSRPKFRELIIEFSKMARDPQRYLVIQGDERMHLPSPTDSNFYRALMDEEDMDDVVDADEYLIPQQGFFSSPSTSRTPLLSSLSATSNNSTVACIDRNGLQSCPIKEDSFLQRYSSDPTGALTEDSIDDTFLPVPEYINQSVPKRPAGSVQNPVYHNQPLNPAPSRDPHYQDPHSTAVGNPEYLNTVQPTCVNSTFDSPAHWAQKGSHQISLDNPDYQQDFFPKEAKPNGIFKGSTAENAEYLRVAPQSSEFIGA
Below is a list of entries, each paired with its recorded IC50 value.

Examples with answers:
CCC(=O)Nc1cccc(Nc2nc(Nc3ccc4c(c3)OCCOCCOCCO4)nc3[nH]cnc23)c1 [Compound-8]: > 1 µM
CN([C@@H]1CCCC[C@H]1Oc1nc(Nc2ccc3c(c2)OCCOCCOCCO3)nc2[nH]ccc12)S(C)(=O)=O [Compound-16]: > 1 µM

Consider now this further compound.
Request the reported IC50 associated with c1cc(Nc2nc(Nc3ccc4c(c3)OCCOCCOCCO4)nc3[nH]cnc23)c2cc[nH]c2c1 [Compound-22]
> 1 µM

###

pIC50 values recorded for BTK wt (Homo sapiens (Human), UniProt Q06187)
pIC50: −log10 of the molar value.

CN([C@@H]1CCCC[C@H]1Oc1nc(Nc2ccc3c(c2)OCCOCCOCCO3)nc2[nH]ccc12)S(C)(=O)=O: < 6.00
CN(C1CCCC1Oc1nc(Nc2ccc3c(c2)OCCOCCOCCO3)nc2[nH]ccc12)S(C)(=O)=O (stereo not shown): < 6.00
C=CC(=O)Nc1cccc(Nc2nc(Nc3ccc4c(c3)OCCOCCOCCO4)ncc2F)c1: > 7.00

Consider now this further compound.
Provide value of pIC50 for this record tested with BTK wt (Homo sapiens (Human), UniProt Q06187): CN(c1cnccc1CNc1nc(Nc2ccc3c(c2)OCCOCCOCCO3)nc2[nH]ccc12)S(C)(=O)=O
Sequence (Q06187 whole entry): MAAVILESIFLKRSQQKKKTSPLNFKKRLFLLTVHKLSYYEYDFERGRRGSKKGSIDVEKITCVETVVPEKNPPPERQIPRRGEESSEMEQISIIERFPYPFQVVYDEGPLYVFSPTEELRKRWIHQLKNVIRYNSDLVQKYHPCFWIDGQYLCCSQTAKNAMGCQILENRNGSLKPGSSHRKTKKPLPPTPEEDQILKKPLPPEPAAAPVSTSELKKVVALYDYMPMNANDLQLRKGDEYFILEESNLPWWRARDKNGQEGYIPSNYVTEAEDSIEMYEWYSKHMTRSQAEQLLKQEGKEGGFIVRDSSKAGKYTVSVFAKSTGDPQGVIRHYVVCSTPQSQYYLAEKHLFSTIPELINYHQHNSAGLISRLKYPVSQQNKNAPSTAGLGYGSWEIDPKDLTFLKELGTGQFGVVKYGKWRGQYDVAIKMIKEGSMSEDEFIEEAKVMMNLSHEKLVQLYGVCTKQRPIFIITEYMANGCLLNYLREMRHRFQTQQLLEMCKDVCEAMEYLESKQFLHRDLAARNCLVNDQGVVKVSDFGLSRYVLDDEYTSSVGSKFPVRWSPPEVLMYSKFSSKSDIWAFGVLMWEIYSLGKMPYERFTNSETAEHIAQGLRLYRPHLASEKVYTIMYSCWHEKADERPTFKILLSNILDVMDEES
< 6.00
